// data source = patent EP1080728A1

target: human EP4 receptor subtype (Homo sapiens, UniProt P35408); construct: expressed in transfected cells; host or cells: COS-7 cells (transient expression), membrane fraction; experiment: Receptor binding study using PGE2 receptor subtype expression cells (3H-PGE2 displacement, membrane fraction); conditions: human EP4 receptor transiently expressed in COS-7 cells, membrane fraction 10 µg/tube, 3H-PGE2 5 nM, 30°C for 1 hour; Ki = IC50/(1+[C]/Kd); read-out: DISSOCIATION CONSTANT Ki (nM) EP4
Sequence (P35408 whole entry): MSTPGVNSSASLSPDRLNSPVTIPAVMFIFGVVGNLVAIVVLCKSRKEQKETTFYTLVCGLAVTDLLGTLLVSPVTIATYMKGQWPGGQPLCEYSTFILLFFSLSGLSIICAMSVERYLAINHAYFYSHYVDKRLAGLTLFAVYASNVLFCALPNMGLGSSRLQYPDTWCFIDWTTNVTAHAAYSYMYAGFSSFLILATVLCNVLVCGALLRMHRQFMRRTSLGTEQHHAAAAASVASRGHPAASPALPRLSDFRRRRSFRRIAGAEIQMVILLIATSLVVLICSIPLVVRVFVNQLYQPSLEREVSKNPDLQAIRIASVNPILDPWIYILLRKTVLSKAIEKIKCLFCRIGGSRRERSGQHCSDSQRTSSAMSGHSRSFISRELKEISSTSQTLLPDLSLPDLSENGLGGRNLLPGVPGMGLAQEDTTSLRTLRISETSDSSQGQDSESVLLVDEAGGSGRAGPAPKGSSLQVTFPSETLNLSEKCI
Readout Name: Ki
Value and unit, in that order.

Q. Consider the molecule O=C(O)CCc1cccc2c1O[C@H]1C[C@@H](O)[C@H](/C=C/[C@@H](O)CC3CCCCC3)[C@@H]21 and give its measured Ki.
A. 19 nM
